Values compiled from paper PMC9015690.

# TARGET UNDER TEST: Wild type CXCL12 (CXCL12-WT) (UniProt P48061-2 22-89)
# Sequence (P48061 22-89): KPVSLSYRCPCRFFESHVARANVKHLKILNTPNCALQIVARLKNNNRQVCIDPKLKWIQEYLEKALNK
# TEST DESCRIPTION: ITC
METRIC: pKd
For clarity, pKd is expressed as the negative log10 of concentration in mol/L.

In: Find the recorded pKd belonging to ACKR1^N-term, sixty-amino acid peptide corresponding to the extracellular N-terminus of ACKR1 (domain or fragment, UniProt Q16570 1-60, looked up) MGNALHRAELSPSTENSSQLDFEDVWNSSYGVNDSFPDGDYGANLEAAAPAHSANLLDDS and report it.
Out: 5.40
